Data credit: patent US12122785B2

# Test system: TYK2 pseudokinase (JH2); IL-23-stimulated HEK-Blue IL-23 cells
# Method Notes: HEK-Blue IL-23 reporter assay (STAT3-inducible SEAP) for profiling TYK2 pseudokinase (JH2) inhibition
# Format: cell-based
# Conditions: 10 ng/mL human recombinant IL-23, SEAP readout, read-out: IL23 (TYK2 inhibitory activity, IC50)
Quantity Kind: IC50

| Smiles Structure | Subject Of Test | IC50 |
| --- | --- | --- |
| [2H]C([2H])([2H])NC(=O)c1cnc(NC(=O)C2CC2)cc1Nc1nccc2c1N(C)Cc1cn(C)nc1-2 | TYK2 pseudokinase (JH2); IL-23-stimulated HEK-Blue IL-23 cells | < 30 nM |

Problem: # lookup: TYK2 pseudokinase (JH2); IL-23-stimulated HEK-Blue IL-23 cells IC50, key = "[2H]C([2H])([2H])NC(=O)c1cnc(NC(=O)C2CC2)cc1Nc1cccc2c1N(C([2H])([2H])[2H])Cc1cn(C)nc1-2"
Solution: < 30 nM

Problem: Specify IC50 for "[2H]C([2H])([2H])NC(=O)c1nnc(Nc2ccc(F)cn2)cc1Nc1cccc2c1OCc1cn(C)nc1-2" , system TYK2 pseudokinase (JH2); IL-23-stimulated HEK-Blue IL-23 cells.
Solution: < 30 nM

Problem: Fill in: IC50 on TYK2 pseudokinase (JH2); IL-23-stimulated HEK-Blue IL-23 cells, entry "[2H]C([2H])([2H])NC(=O)c1cnc(NC(=O)C2CC2)cc1Nc1cccc2c1N(C)Cc1cn(C([2H])([2H])[2H])nc1-2"
Solution: < 30 nM

Problem: Tell me its IC50 on TYK2 pseudokinase (JH2); IL-23-stimulated HEK-Blue IL-23 cells: "[2H]C([2H])([2H])NC(=O)c1nnc(NC(=O)C2CC2)cc1Nc1cccc2c1N(C)C([2H])([2H])c1ccnn1-2"
Solution: < 30 nM

Problem: Quote IC50 with test system TYK2 pseudokinase (JH2); IL-23-stimulated HEK-Blue IL-23 cells for "[2H]C([2H])([2H])NC(=O)c1cnc(NC(=O)C2CC2)cc1Nc1cccc2c1N(C)Cc1cn(C)nc1-2"
Solution: < 30 nM

Problem: Find the measured IC50 of "[2H]C([2H])([2H])NC(=O)c1nnc(NC(=O)C2CC2)cc1Nc1nccc2c1N(C)C([2H])([2H])c1cc(C)nn1-2" with TYK2 pseudokinase (JH2); IL-23-stimulated HEK-Blue IL-23 cells as test system.
Solution: < 30 nM

Problem: // fetch IC50 for "[2H]C([2H])([2H])NC(=O)c1cnc(NC(=O)C2COC2)cc1Nc1cccc2c1N(C)Cc1cn(C)nc1-2" ; system: TYK2 pseudokinase (JH2); IL-23-stimulated HEK-Blue IL-23 cells
Solution: 30 to 300 nM

Problem: Report IC50 on TYK2 pseudokinase (JH2); IL-23-stimulated HEK-Blue IL-23 cells for this entry: "[2H]C([2H])([2H])NC(=O)c1nnc(NC(=O)C2CC2)cc1Nc1cccc2c1N(C)Cc1cc(C)nn1-2"
Solution: < 30 nM

Problem: Write IC50 of "[2H]C([2H])([2H])NC(=O)c1nnc(NC(=O)C2CC2)cc1Nc1nccc2c1N(C)Cc1cn(C)nc1-2" ; system used: TYK2 pseudokinase (JH2); IL-23-stimulated HEK-Blue IL-23 cells
Solution: < 30 nM

Problem: Please report the measured IC50 for "CNC(=O)c1nnc(NC(=O)C2CC2)cc1Nc1cccc2c1OCc1cn(C3COC3)nc1-2" tested on TYK2 pseudokinase (JH2); IL-23-stimulated HEK-Blue IL-23 cells.
Solution: 30 to 300 nM

Problem: Give the observed IC50 of "CNC(=O)c1nnc(Nc2ccc(F)cn2)cc1Nc1cccc2c1OCc1cnn(C)c1-2" for TYK2 pseudokinase (JH2); IL-23-stimulated HEK-Blue IL-23 cells.
Solution: 30 to 300 nM

Problem: Name the value of IC50 reported for "[2H]C([2H])([2H])NC(=O)c1cnc(NC(=O)C2CC2)cc1Nc1cccc2c1N(C)C([2H])([2H])c1cn(C)nc1-2" when tested on TYK2 pseudokinase (JH2); IL-23-stimulated HEK-Blue IL-23 cells.
Solution: < 30 nM

Problem: Report IC50 under test system TYK2 pseudokinase (JH2); IL-23-stimulated HEK-Blue IL-23 cells for "[2H]C([2H])([2H])NC(=O)c1cnc(NC(=O)C2CC2)cc1Nc1cccc2c1N(C)Cc1cnn(C)c1-2" .
Solution: < 30 nM
